biological target: G2019S LRRK2 (Homo sapiens, UniProt Q5S007, G2019S); construct: expressed in transfected cells; host or cells: HEK293 (ATCC CRL-1573), transient transfection, mammalian expression vector with ubiquitin promoter; assay: LRRK2 degradation assay, HiBit-tagged G2019S LRRK2 expressed from plasmid in HEK293 cells (Nano-Glo Dual-Luciferase); format: cell-based; conditions: HiBit-tagged G2019S LRRK2, HEK293 cells, 24 hours
Sequence (Q5S007 whole entry G2019S): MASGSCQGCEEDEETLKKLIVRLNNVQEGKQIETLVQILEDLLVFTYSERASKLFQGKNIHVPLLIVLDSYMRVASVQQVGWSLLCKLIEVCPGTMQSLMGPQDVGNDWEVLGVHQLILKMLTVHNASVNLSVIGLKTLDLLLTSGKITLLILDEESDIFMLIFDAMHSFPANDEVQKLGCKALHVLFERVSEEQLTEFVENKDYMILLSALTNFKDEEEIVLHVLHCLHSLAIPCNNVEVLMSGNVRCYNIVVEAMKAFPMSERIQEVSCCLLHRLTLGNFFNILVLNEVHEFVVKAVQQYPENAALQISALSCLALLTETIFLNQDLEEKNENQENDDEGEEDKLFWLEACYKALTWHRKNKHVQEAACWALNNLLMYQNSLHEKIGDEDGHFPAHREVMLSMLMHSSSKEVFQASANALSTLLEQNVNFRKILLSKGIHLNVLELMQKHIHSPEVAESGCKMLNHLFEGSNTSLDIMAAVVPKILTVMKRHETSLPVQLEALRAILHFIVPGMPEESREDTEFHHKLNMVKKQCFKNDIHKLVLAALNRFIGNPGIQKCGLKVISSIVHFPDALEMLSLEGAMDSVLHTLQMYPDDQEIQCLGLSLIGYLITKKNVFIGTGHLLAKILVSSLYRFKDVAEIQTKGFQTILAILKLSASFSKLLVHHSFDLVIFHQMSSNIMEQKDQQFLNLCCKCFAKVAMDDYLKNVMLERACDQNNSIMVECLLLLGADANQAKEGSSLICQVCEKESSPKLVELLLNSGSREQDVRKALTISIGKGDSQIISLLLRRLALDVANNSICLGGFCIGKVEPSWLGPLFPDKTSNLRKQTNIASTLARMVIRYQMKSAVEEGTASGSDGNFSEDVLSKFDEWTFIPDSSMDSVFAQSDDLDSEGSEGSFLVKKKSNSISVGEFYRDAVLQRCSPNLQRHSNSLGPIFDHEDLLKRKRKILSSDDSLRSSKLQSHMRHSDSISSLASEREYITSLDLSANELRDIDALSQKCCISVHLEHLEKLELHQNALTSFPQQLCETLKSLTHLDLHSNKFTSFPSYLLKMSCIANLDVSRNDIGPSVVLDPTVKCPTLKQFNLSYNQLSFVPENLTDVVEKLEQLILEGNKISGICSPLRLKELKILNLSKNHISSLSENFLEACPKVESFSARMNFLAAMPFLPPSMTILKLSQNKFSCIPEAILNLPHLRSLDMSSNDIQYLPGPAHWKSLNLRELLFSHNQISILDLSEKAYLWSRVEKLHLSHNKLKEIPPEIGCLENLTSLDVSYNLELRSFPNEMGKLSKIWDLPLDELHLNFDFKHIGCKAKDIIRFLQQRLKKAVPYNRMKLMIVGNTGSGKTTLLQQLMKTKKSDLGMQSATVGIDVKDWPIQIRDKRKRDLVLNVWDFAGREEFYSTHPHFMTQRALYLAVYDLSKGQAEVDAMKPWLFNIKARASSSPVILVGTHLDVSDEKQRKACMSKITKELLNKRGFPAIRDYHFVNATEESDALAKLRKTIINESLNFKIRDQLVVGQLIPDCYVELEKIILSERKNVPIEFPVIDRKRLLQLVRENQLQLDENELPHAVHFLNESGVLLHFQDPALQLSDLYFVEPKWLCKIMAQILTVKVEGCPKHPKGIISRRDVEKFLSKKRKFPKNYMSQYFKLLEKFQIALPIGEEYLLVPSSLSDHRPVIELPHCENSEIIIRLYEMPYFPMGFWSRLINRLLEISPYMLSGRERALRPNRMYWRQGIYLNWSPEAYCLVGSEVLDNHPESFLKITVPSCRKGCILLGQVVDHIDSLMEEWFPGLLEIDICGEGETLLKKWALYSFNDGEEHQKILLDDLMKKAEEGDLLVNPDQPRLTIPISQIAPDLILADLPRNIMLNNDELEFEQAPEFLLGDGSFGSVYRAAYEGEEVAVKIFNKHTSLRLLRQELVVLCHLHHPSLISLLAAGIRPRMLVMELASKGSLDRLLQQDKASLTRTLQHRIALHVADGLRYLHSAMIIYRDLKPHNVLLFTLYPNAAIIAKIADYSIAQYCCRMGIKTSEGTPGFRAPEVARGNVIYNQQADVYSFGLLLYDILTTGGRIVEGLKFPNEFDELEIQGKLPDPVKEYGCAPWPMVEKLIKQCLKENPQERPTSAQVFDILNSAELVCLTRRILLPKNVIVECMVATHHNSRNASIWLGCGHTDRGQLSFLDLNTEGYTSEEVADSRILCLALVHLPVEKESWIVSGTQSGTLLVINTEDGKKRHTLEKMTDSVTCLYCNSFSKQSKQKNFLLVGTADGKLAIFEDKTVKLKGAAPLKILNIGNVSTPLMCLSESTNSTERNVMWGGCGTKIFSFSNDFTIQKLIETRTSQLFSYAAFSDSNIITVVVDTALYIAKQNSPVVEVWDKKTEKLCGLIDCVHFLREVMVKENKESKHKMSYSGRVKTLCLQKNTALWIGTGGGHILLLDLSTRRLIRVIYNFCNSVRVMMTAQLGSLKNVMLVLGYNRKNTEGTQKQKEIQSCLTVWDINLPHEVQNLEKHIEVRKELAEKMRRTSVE
Provide the recorded Dmax for the entries that follow.

## Task Given the molecule CC1(Oc2ccc3[nH]nc(-c4cc(N5CCC(CN6CC7(CCN7CC7CCN(c8ccc9c(c8)C(=O)N(C8CCC(=O)NC8=O)C9=O)CC7)C6)CC5)ncn4)c3c2)CC1 (stereo not shown) [Compound 176] , write its reported Dmax.
## Result < 50%

## Task Give Dmax for CC1(Oc2ccc3[nH]nc(-c4ccnc(N5CC6(CN(CC7CCN(CC8CCN(c9ccc%10c(c9)C(=O)N(C9CCC(=O)NC9=O)C%10=O)CC8)CC7)C6)C5)c4)c3c2)CC1 (stereo not shown) [Compound 161]
## Result 50 to 70%

## Task Consider the molecule CC1(Oc2ccc3[nH]nc(-c4cc(N5CC[C@@H](CN6CCN(CC7CCN(c8ccc9c(c8)C(=O)N(C8CCC(=O)NC8=O)C9=O)CC7)CC6)C5)ncn4)c3c2)CC1 (stereo partly shown) [Compound 167] . State its measured Dmax.
## Result 50 to 70%

# map each molecule to its Dmax
1. CC1(Oc2ccc3[nH]nc(-c4ccnc(N5CC(CCC6CCN(CC7CCN(c8ccc9c(c8)C(=O)N(C8CCC(=O)NC8=O)C9=O)CC7)CC6)C5)c4)c3c2)CC1 (stereo not shown) [Compound 165]
2. CC1(Oc2ccc3n[nH]c(-c4cc(N5CCC(Cc6ccc(CC7CCN(c8ccc9c(c8)C(=O)N(C8CCC(=O)NC8=O)C9=O)CC7)cc6)CC5)ncn4)c3c2)CC1 (stereo not shown) [Compound 171]
3. CC1(Oc2ccc3[nH]nc(-c4cc(N5CCN(C[C@@H]6CN(CC7CCN(c8ccc9c(c8)C(=O)N(C8CCC(=O)NC8=O)C9=O)CC7)CCO6)CC5)ncn4)c3c2)CC1 (stereo partly shown) [Compound 156]
4. CC1(Oc2ccc3[nH]nc(-c4cc(N5CCN(C[C@@H]6CN(CCC7CCN(c8ccc9c(c8)C(=O)N(C8CCC(=O)NC8=O)C9=O)CC7)CCO6)CC5)ncn4)c3c2)CC1 (stereo partly shown) [Compound 158]
5. CC1(Oc2ccc3[nH]nc(-c4ccnc(N5CCC56CN(CC5CCN(CC7CCN(c8ccc9c(c8)C(=O)N(C8CCC(=O)NC8=O)C9=O)CC7)CC5)C6)c4)c3c2)CC1 (stereo not shown) [Compound 162]
6. CC1(Oc2ccc3[nH]nc(-c4cc(N5CCN(C[C@H]6CN(CC7CCN(c8ccc9c(c8)C(=O)N(C8CCC(=O)NC8=O)C9=O)CC7)CCO6)CC5)ncn4)c3c2)CC1 (stereo partly shown) [Compound 157]
7. CC1(Oc2ccc3[nH]nc(-c4cc(N5CCO[C@@H](CN6CCN(CC7CCN(c8ccc9c(c8)C(=O)N(C8CCC(=O)NC8=O)C9=O)CC7)CC6)C5)ncn4)c3c2)CC1 (stereo partly shown) [Compound 153]

## Result
["50 to 70%", "< 50%", "< 50%", "≥ 70%", "< 50%", "≥ 70%", "< 50%"]
